The reported measurements were obtained from patent US20110009343A1.

Tested system: Aβ1-40 (Homo sapiens)
Construct: (β-AP1-40) was obtained commercially from Bachem (Torrance, Calif.); purchased Bachem (Torrance, Calif.)
Measurement protocol: Nucleation assay (turbidity, A405 nm)
Format: biochemical
Condition notes: Table V; 100 mole % inhibitor; read-out: % Inucl'n (percent reduction in maximum observed turbidity)
Item-by-item account of inhibition at 100 mol %
Assay readout: inhibition at 100 mol % (%)

compound="C[C@H](CCC(=O)O)[C@H]1CC[C@H]2[C@@H]3[C@H](O)C[C@@H]4C[C@H](O)CC[C@]4(C)[C@H]3C[C@H](O)[C@]12C [PPI-293, Cholic acid, reference compound]" assay_readout="inhibition at 100 mol %" unit_name=% recorded_number=0
compound="CC(C)C[C@H](NC(=O)[C@H](CCCCN)NC(=O)CC[C@@H](C)[C@H]1CC[C@H]2[C@@H]3[C@H](O)C[C@@H]4C[C@H](O)CC[C@]4(C)[C@H]3C[C@H](O)[C@]12C)C(=O)N[C@H](C(=O)N[C@@H](Cc1ccccc1)C(=O)N[C@@H](Cc1ccccc1)C(N)=O)C(C)C [PPI-319, cholyl-Aβ16-20-amide]" assay_readout="inhibition at 100 mol %" unit_name=% recorded_number=70

---

Tested system: Aβ1-40 (Homo sapiens, UniProt P05067)
Construct: (β-AP1-40) was obtained commercially from Bachem (Torrance, Calif.); purchased Bachem (Torrance, Calif.)
Sequence (P05067 672-711): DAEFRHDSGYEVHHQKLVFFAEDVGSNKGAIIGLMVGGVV
Measurement protocol: Nucleation assay (turbidity, A405 nm)
Format: biochemical
Condition notes: Table V; 100 mole % inhibitor; read-out: % Inucl'n (percent reduction in maximum observed turbidity)
Peptide text beside a SMILES is read from it. * marks the point of attachment. Cholyl = C[C@H](CCC(=O)*)[C@H]1CC[C@H]2[C@@H]3[C@H](O)C[C@@H]4C[C@H](O)CC[C@]4(C)[C@H]3C[C@H](O)[C@]12C
Item-by-item account of inhibition at 100 mol %
Assay readout: inhibition at 100 mol % (%)

compound=CC(C)C[C@H](NC(=O)CC[C@@H](C)[C@H]1CC[C@H]2[C@@H]3[C@H](O)C[C@@H]4C[C@H](O)CC[C@]4(C)[C@H]3C[C@H](O)[C@]12C)C(=O)N[C@H](C(=O)N[C@@H](Cc1ccccc1)C(=O)N[C@@H](Cc1ccccc1)C(=O)N[C@@H](C)C(=O)O)C(C)C recorded_number=100
compound=CC(C)C[C@H](NC(=O)[C@H](CCCCN)NC(=O)[C@H](CCC(N)=O)NC(=O)CC[C@@H](C)[C@H]1CC[C@H]2[C@@H]3[C@H](O)C[C@@H]4C[C@H](O)CC[C@]4(C)[C@H]3C[C@H](O)[C@]12C)C(=O)N[C@H](C(=O)N[C@@H](Cc1ccccc1)C(=O)N[C@@H](Cc1ccccc1)C(=O)O)C(C)C recorded_number=100
compound="CC(C)C[C@H](NC(=O)[C@H](CCCCN)NC(=O)CC[C@@H](C)[C@H]1CC[C@H]2[C@@H]3[C@H](O)C[C@@H]4C[C@H](O)CC[C@]4(C)[C@H]3C[C@H](O)[C@]12C)C(=O)N[C@H](C(=O)N[C@@H](C)C(=O)N[C@@H](Cc1ccccc1)C(=O)O)C(C)C [PPI-370, cholyl-Aβ16-20 Phe19->Ala] (Cholyl-KLVAF-OH)" recorded_number=73

---

Tested system: Aβ1-40 (Homo sapiens)
Construct: (β-AP1-40) was obtained commercially from Bachem (Torrance, Calif.); purchased Bachem (Torrance, Calif.)
Measurement protocol: Nucleation assay (turbidity, A405 nm);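 also: synthetic Aβ monomer polymerization followed by turbidity in 96-well plates with continuous shaking, read every 15 minutes over 5 hours, compared against wells lacking test compound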
Type: biochemical
Condition notes: Table IV; 100 mole %
A collection of compounds and their measured Fold Increase in Lag Time
Assay readout: Fold Increase in Lag Time

compound="CC(C)C[C@H](NC(=O)[C@H](CCCCN)NC(=O)CC[C@@H](C)[C@H]1CC[C@H]2[C@@H]3[C@H](O)C[C@@H]4C[C@H](O)CC[C@]4(C)[C@H]3C[C@H](O)[C@]12C)C(=O)N[C@H](C(=O)N[C@@H](Cc1ccccc1)C(=O)N[C@@H](Cc1ccccc1)C(=O)O)C(C)C [PPI-350, cholyl-Aβ16-20]" tested_system="Aβ1-40 (Homo sapiens)" result=">5.0 fold"
compound="CC(C)C[C@H](NC(=O)[C@H](CCCCN)NC(=O)[C@H](CCC(N)=O)NC(=O)CC[C@@H](C)[C@H]1CC[C@H]2[C@@H]3[C@H](O)C[C@@H]4C[C@H](O)CC[C@]4(C)[C@H]3C[C@H](O)[C@]12C)C(=O)N[C@H](C(=O)N[C@@H](Cc1ccccc1)C(=O)N[C@@H](Cc1ccccc1)C(=O)O)C(C)C [PPI-349, cholyl-Aβ15-20]" tested_system="Aβ1-40 (Homo sapiens)" result=">5.0 fold"
compound="CC(C)C[C@H](NC(=O)CC[C@@H](C)[C@H]1CC[C@H]2[C@@H]3[C@H](O)C[C@@H]4C[C@H](O)CC[C@]4(C)[C@H]3C[C@H](O)[C@]12C)C(=O)N[C@H](C(=O)N[C@@H](Cc1ccccc1)C(=O)N[C@@H](Cc1ccccc1)C(=O)N[C@@H](C)C(=O)O)C(C)C [PPI-368, cholyl-Aβ17-21]" tested_system="Aβ1-40 (Homo sapiens)" result=">5.0 fold"
compound="C[C@H](NC(=O)[C@H](C)NC(=O)[C@H](C)NC(=O)[C@H](C)NC(=O)[C@H](C)NC(=O)CC[C@@H](C)[C@H]1CC[C@H]2[C@@H]3[C@H](O)C[C@@H]4C[C@H](O)CC[C@]4(C)[C@H]3C[C@H](O)[C@]12C)C(=O)O [PPI-365, Cholyl-penta-alanine]" tested_system="Aβ1-40 (Homo sapiens)" result="~1 fold"
